Cited source: ChEMBL document CHEMBL1141469

# Species: Canis lupus familiaris
# Measurement notes: Ratio of IC50 for dog COX1 to IC50 for dog COX2
Measure: Ratio IC50

Recorded Ratio IC50, per entry:
1) CC(C)CCc1nc(C(F)(F)F)nn1-c1ccc(S(C)(=O)=O)cn1 : 258
2) CS(=O)(=O)c1ccc(-n2nc(C(F)(F)F)nc2-c2cccnc2)nc1 : 138
3) CS(=O)(=O)c1ccc(-n2nc(C(F)(F)F)cc2-c2ccccc2)nc1 : > 122
4) CS(=O)(=O)c1ccc(-n2nc(C(F)(F)F)nc2-c2ccccc2F)nc1 : > 416
5) CS(=O)(=O)c1ccc(-n2nc(C(F)(F)F)c(C#N)c2-c2ccccc2)nc1 : 48.5

Query :: Please look up its Ratio IC50: CC(C)Cc1nc(C(F)(F)F)nn1-c1ccc(S(C)(=O)=O)cn1
Result :: 2.3

Query :: Requested read-out: Ratio IC50. Entry: CS(=O)(=O)c1ccc(-n2nc(C(F)(F)F)nc2-c2ccccn2)nc1
Result :: > 104

Query :: Would you kindly share the measured Ratio IC50 for CCC(C)Cc1nc(C(F)(F)F)nn1-c1ccc(S(C)(=O)=O)cn1 (stereo not given) ?
Result :: > 13

Query :: What Ratio IC50 value was documented for this molecule, CS(=O)(=O)c1ccc(-n2nc(C(F)(F)F)nc2-c2ccc(F)cc2)nc1 ?
Result :: 71

Query :: Can you share its Ratio IC50? I mean this molecule: CS(=O)(=O)c1ccc(-n2nc(C(F)(F)F)cc2C2CCCCC2)nc1
Result :: 194

----------
# Measurement notes: Inhibition of COX1 in dog whole blood assessed as production of TBX2 by EIA
# Assay type: tissue-based
# Protocol conditions: Canis lupus familiaris
pIC50: −log10 of the molar value.
Measure: pIC50

Example results:
1. CS(=O)(=O)c1ccc(-n2nc(C(F)(F)F)cc2-c2ccc(F)cc2)nc1 : 4.72
2. CS(=O)(=O)c1ccc(-n2nc(C(F)(F)F)nc2-c2ccccn2)nc1 : < 4.30

Okay, now this compound:
Query :: Please give the measured pIC50 for this compound: CS(=O)(=O)c1ccc(-n2nc(C(F)(F)F)cc2-c2ccccn2)nc1
Result :: < 6.30
